B1: CIB1 (parent)
chain: DLSRLVNCLTGEGEDTRLSASEMK

Variants of: B1
measurement_notes: protein stability index of a GFP-peptide fusion (GPS, HEK-293T) (PSI 1-6); higher = more stable;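 further: lentivirally expressed fusions sorted by FACS into six bins by GFP to DsRed ratio, PSI derived from sequencing read proportions per bin multiplied by bin number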
details: c terminus: a fixed tail appended
measured_quantity: protein stability index
Provide a numeric answer; units are not to be included.

Please supply the value of reported protein stability index for the item R4M 2.98

Please supply the value of reported protein stability index for the item L9E 3.09

Please supply the value of reported protein stability index for the item L5K 4.53

Please supply the value of reported protein stability index for the item A20W 3.38

Please supply the value of reported protein stability index for the item R17Q 3.1

Please supply the value of reported protein stability index for the item S19A 3.2

Please supply the value of reported protein stability index for the item E14C 3.36

Please supply the value of reported protein stability index for the item N7T 2.62

Please supply the value of reported protein stability index for the item T10F 2.77

Please supply the value of reported protein stability index for the item E12A 2.15

Please supply the value of reported protein stability index for the item D1V 1.95

Please supply the value of reported protein stability index for the item L2F 3.85

Please supply the value of reported protein stability index for the item L9R 2.54

Please supply the value of reported protein stability index for the item D15A 3.61

Please supply the value of reported protein stability index for the item T10R 2.15

Please supply the value of reported protein stability index for the item D1M 2.49

Please supply the value of reported protein stability index for the item L9A 1.75

Please supply the value of reported protein stability index for the item L2G 5.22

Please supply the value of reported protein stability index for the item L18D 4.07

Please supply the value of reported protein stability index for the item S19T 2.01

Please supply the value of reported protein stability index for the item K24E 3.9

Please supply the value of reported protein stability index for the item L2E 5.67

Please supply the value of reported protein stability index for the item L5H 3.23

Please supply the value of reported protein stability index for the item M23R 2.68

Please supply the value of reported protein stability index for the item G13C 2.94

Please supply the value of reported protein stability index for the item E12T 1.85

Please supply the value of reported protein stability index for the item S21L 2.06

Please supply the value of reported protein stability index for the item G11F 3.35

Please supply the value of reported protein stability index for the item D15N 1.77

Please supply the value of reported protein stability index for the item D15C 2.19

Please supply the value of reported protein stability index for the item D1H 3.25

Please supply the value of reported protein stability index for the item G13T 3.16

Please supply the value of reported protein stability index for the item D1S 2.8

Please supply the value of reported protein stability index for the item L2K 4.56

Please supply the value of reported protein stability index for the item L5F 2.49

Please supply the value of reported protein stability index for the item C8M 3.52

Please supply the value of reported protein stability index for the item T10V 3.38

Please supply the value of reported protein stability index for the item E12K 3.29

Please supply the value of reported protein stability index for the item D15Y 2.06

Please supply the value of reported protein stability index for the item E12P 3.04

Please supply the value of reported protein stability index for the item L18K 3.36

Please supply the value of reported protein stability index for the item N7S 3.63

Please supply the value of reported protein stability index for the item S19Q 2.78

Please supply the value of reported protein stability index for the item E22H 2.49

Please supply the value of reported protein stability index for the item R17L 2.59

Please supply the value of reported protein stability index for the item K24W 1.86

Source listed as the supplement of paper PMC10567573.
